B1: MLL5 (parent)
chain: TYLCERCQPRNLDKERAVLLQRRK

variants of: B1; test: protein stability index of a GFP-peptide fusion (GPS, HEK-293T) (PSI 1-6); higher = more stable; conditions: c terminus: a fixed tail appended;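 further: lentivirally expressed fusions sorted by FACS into six bins by GFP to DsRed ratio, PSI derived from sequencing read proportions per bin multiplied by bin number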
protein stability index overview
Write no unit; give the number alone.

See these solved cases before continuing.
• K24M = 1.81
• D13F = 1.78
• Y2T = 2.41

Note down protein stability index recorded for L3W 1.96

Give protein stability index for the following variant: R6W 1.53

Write down protein stability index measured for item A17L 1.45

Give me measured protein stability index, please, for this variant: N11I 1.68

Provide protein stability index value for the following variant: Y2L 2.78

Complete the entry with protein stability index for C4P 4.26

Read off the recorded protein stability index for K14P 1.96

Look up and report measured protein stability index for this entry: L3V 2.17

# return recorded protein stability index for entry C7M 3.2

Please supply the value of reported protein stability index for the item D13Y 2.48

Answer with reported protein stability index of K24D 2.36

Specify measured protein stability index for L12W . 1.61

Entry L3S needs its protein stability index filled in; supply it. 2.18

Note protein stability index for the variant shown: R23W 2.39

// fetch protein stability index given entry P9F 2.15

Fill in protein stability index for record L20N 2.68
